# pIC50 per entry
# targetOfAssay: beta-catenin/TCF4 engagement (Homo sapiens)
# Construct: expressed in transfected cells; host or cells: HEK293
# Sequence (P35222 whole entry): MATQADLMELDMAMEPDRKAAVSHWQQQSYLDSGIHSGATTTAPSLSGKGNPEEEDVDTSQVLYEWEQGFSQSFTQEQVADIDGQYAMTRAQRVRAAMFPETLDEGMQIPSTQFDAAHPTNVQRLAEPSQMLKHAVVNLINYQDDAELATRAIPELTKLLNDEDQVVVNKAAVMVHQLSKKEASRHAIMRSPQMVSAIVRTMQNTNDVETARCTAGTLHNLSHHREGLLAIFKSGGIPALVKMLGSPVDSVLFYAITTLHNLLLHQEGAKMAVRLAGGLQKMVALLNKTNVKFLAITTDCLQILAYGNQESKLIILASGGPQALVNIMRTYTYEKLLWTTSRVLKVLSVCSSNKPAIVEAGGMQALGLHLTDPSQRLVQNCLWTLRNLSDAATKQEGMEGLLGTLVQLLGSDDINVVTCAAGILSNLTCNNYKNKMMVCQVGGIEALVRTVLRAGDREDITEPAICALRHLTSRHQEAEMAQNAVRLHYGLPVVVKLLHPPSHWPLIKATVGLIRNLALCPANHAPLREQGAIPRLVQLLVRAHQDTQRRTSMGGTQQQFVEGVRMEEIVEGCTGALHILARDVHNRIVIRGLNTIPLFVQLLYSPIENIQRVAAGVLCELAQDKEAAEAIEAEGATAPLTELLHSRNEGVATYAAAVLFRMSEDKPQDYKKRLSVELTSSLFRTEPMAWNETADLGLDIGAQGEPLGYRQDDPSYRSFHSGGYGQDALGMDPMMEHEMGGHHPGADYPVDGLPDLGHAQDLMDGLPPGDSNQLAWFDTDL
# test: Nano-BRET target engagement assay (B-cat-Halo & TCF4-Luc in HEK293 cells)
# Assay type: cell-based
# details: read-out: NanoBRET Abs IC50
pIC50: −log10 of the molar value.
measuredParameter: pIC50

CC(=O)N1CCC[C@]12CC=CCCCC1(CCCC=CCCCOC(=O)N3CC[C@@](C(=O)N[C@@H](Cc4ccccc4Cl)C(=O)N[C@@H](Cc4csc5ccccc45)C(=O)N[C@@H](CCC(N)=O)C(N)=O)(C3)NC(=O)[C@H](CC(C)C)NC(=O)[C@H](Cc3ccccc3)NC(=O)[C@H](C)NC(=O)[C@H](C)NC(=O)[C@H](CC(=O)O)NC(=O)[C@H](CC(=O)O)NC1=O)NC(=O)[C@H](Cc1ccc3ccccc3c1)NC(=O)[C@H](CC(=O)O)NC2=O (stereo partly drawn): < 4.70
CC(=O)N1CCC[C@]12CC=CCCCC1(CCCC=CCCCOC(=O)N3CC[C@@](C(=O)N[C@@H](Cc4ccccc4Cl)C(=O)N[C@@H](Cc4csc5ccccc45)C(=O)N[C@@H](CCC(N)=O)C(N)=O)(C3)NC(=O)[C@H](CO)NC(=O)[C@H](Cc3ccc(C(F)(F)F)cc3)NC(=O)[C@H](C)NC(=O)[C@H](C)NC(=O)[C@H](CC(=O)O)NC(=O)[C@H](CC(=O)O)NC1=O)NC(=O)[C@H](CC1CCCCC1)NC(=O)[C@H](CC(=O)O)NC2=O (stereo partly drawn): < 4.70
CC(=O)N1CCC[C@]12CC=CCCCC1(CCCC=CCCCCOC(=O)N3CCC(C(=O)N[C@@H](Cc4ccccc4C(F)(F)F)C(=O)N[C@@H](Cc4csc5ccccc45)C(=O)N[C@@H](CCC(N)=O)C(N)=O)(CC3)NC(=O)[C@H](CC(C)C)NC(=O)[C@H](Cc3ccccc3)NC(=O)[C@H](C)NC(=O)[C@H](C)NC(=O)[C@H](Cc3cccc(C(=O)O)c3)NC(=O)[C@H](CC(=O)O)NC1=O)NC(=O)[C@H](CC(C)(C)C)NC(=O)[C@H](CC(=O)O)NC2=O (stereo partly drawn): < 4.70
